test system: glucose-6-phosphate dehydrogenase-6-phosphogluconolactonase (Plasmodium falciparum 3D7); test: inhibition of malaria parasite G6PD (PfGluPho) – biochemical, fluorescence intensity, uHTS, primary screen (AID 504690); conditions: PfGluPho enzyme, NADPH resazurin-diaphorase fluorescence; at 20 µM; hits give high values;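 also: 0% = DMSO wells with substrate and 100% = DMSO wells lacking glucose-6-phosphate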
In all, about 350,000 compounds went through this assay and about 2,700 (0.77%) were called active. Shown is part of a subset that was picked to be rich in actives.
readout name: inhibition (%)
Answer format: numeric, % implied, no suffix.

Request: Please report the recorded inhibition for CN1c2ccc(C=O)c3c(C=O)ccc(c23)N(C)C1(C)C .
Response: 69.6

Request: Please report the recorded inhibition for CC1(c2ccc3ccccc3c2)NC(=O)N(CC(N)=O)C1=O (centres undefined) .
Response: -14

Request: Please report the recorded inhibition for O=C(c1[nH]ncc1-c1ccc(Cl)cc1)C1CO1 (centres undefined) .
Response: 2.19

Request: Please report the recorded inhibition for COc1ccccc1C(=O)N/C(=C/c1ccco1)C(=O)Nc1ccc(C(=O)O)cc1 .
Response: 7.16
